Source listed as patent US4271193A.

Experiment: Acute 7-day toxicity after single application per os
Conditions: mouse, in vivo, po, white NMRI-mice, not fed
Result type: LD50 at 168 h

>>> result("COc1cc(C(=O)NCC(O)CN(C)c2ccc(C(F)(F)F)cc2)cc(OC)c1OC (stereo not drawn) [C]")
"> 1390 mg/kg"

For each listed entry, give its LD50 at 168 h.
1. COc1cc(C(=O)NCC(O)CN(C)c2ccc(Cl)cc2)cc(OC)c1OC (stereo not drawn) [B]
2. COc1ccc(C(=O)NCC(O)CN(C)c2ccc(F)cc2)c2c1OCCO2 (stereo not drawn) [H]
3. CCCCOc1c(OC)cc(C(=O)NCC(O)CN(C)c2ccc(F)cc2)cc1OC (stereo not drawn) [I]
4. CCN(CC(O)CNC(=O)c1cc(OC)c(OC)c(OC)c1)c1ccc(F)cc1 (stereo not drawn) [E]
5. COc1cc(C(=O)NCC(O)CNc2c(C)cc(C)cc2C)cc(OC)c1OC (stereo not drawn) [F]

A)
1. > 5000 mg/kg
2. > 1230 mg/kg
3. > 1370 mg/kg
4. > 1280 mg/kg
5. > 1270 mg/kg
